- experimentDescription: Hepatocyte stability assay, human hepatocytes
- Assay type: in vitro ADME
- testConditions: both sexes, human, cryopreserved hepatocytes, pH 7.3; 0.7 million cells per mL; 1 uM compound
quantity: hepatocyte CLint at 1 uM

Query: Data request, read-out hepatocyte CLint at 1 uM, for O=C(N[C@H]1CC[C@@H](Oc2nc(N3CCOCC3)cc3ncccc23)CC1)c1ncco1
Reply: < 8.2 µL/min/1e6 cells

Query: Data request, read-out hepatocyte CLint at 1 uM, for Cc1nc(N[C@H]2CC[C@@H](Oc3nc(N4CCOCC4)cc4ncccc34)CC2)c2occc2n1
Reply: < 8.2 µL/min/1e6 cells

Query: Data request, read-out hepatocyte CLint at 1 uM, for c1cnc(N[C@H]2CC[C@@H](Oc3nc(N4CCOCC4)cc4ncccc34)CC2)nc1 [Compound 20a]
Reply: > 8.2 µL/min/1e6 cells

Query: Data request, read-out hepatocyte CLint at 1 uM, for c1cnc2cc(N3CCOCC3)nc(O[C@H]3CC[C@@H](Nc4ccn5nccc5n4)CC3)c2c1
Reply: < 8.2 µL/min/1e6 cells

Query: Data request, read-out hepatocyte CLint at 1 uM, for Cn1cnc(N[C@H]2CC[C@@H](Oc3nc(N4CCOCC4)cc4ncccc34)CC2)n1
Reply: > 8.2 µL/min/1e6 cells

Query: Data request, read-out hepatocyte CLint at 1 uM, for COc1ccc(N[C@H]2CC[C@@H](Oc3nc(N4CCOCC4)cc4ncccc34)CC2)nn1
Reply: > 8.2 µL/min/1e6 cells

Query: Data request, read-out hepatocyte CLint at 1 uM, for O=C(N[C@H]1CC[C@@H](Oc2nc(N3CCOCC3)cc3ncccc23)CC1)c1ncccn1
Reply: < 8.2 µL/min/1e6 cells

Query: Data request, read-out hepatocyte CLint at 1 uM, for c1cnc2cc(N3CCOCC3)nc(O[C@H]3CC[C@@H](Nc4ncc5[nH]ccc5n4)CC3)c2c1
Reply: > 8.2 µL/min/1e6 cells

Query: Data request, read-out hepatocyte CLint at 1 uM, for c1cnc2cc(N3CCOCC3)nc(O[C@H]3CC[C@@H](Nc4ncnc5occc45)CC3)c2c1
Reply: > 8.2 µL/min/1e6 cells

Query: Data request, read-out hepatocyte CLint at 1 uM, for c1cnc2cc(N3CCOCC3)nc(O[C@H]3CC[C@@H](Nc4ncnc5ccsc45)CC3)c2c1
Reply: > 8.2 µL/min/1e6 cells

Query: Data request, read-out hepatocyte CLint at 1 uM, for O=C(N[C@H]1CC[C@@H](Oc2nc(N3CCOCC3)cc3ncccc23)CC1)c1ccncc1
Reply: < 8.2 µL/min/1e6 cells

Query: Data request, read-out hepatocyte CLint at 1 uM, for O=C(N[C@H]1CC[C@@H](Oc2nc(N3CCOCC3)cc3ncccc23)CC1)c1ccnnc1
Reply: < 8.2 µL/min/1e6 cells

Query: Data request, read-out hepatocyte CLint at 1 uM, for Cn1ccc2nc(N[C@H]3CC[C@@H](Oc4nc(N5CCOCC5)cc5ncccc45)CC3)ncc21
Reply: < 8.2 µL/min/1e6 cells

Query: Data request, read-out hepatocyte CLint at 1 uM, for Cn1cnc2cnc(N[C@H]3CC[C@@H](Oc4nc(N5CCOCC5)cc5ncccc45)CC3)nc21
Reply: > 8.2 µL/min/1e6 cells
